molecular target: HLA-A*03:01; assay: IEDB peptide-MHC binding, purified MHC/competitive/radioactivity; filed as Kd, often an IC50 or EC50 that approximates it; bounds were set here for any values at or beyond the usual limits of such assays; conditions: source organism: Vaccinia virus WR
observable: Kd

monomer.sequence	observable	reported.value
DSIKDVIHDY	Kd	≥ 70.1 µM
FALKKLIIDR	Kd	≥ 70.1 µM
DICSKHMDAR	Kd	≥ 47.1 µM
QITTDDLVK	Kd	≥ 38.9 µM

###

biological target: HLA-A*01:01; test: IEDB peptide-MHC binding, purified MHC/competitive/radioactivity; filed as Kd, often an IC50 or EC50 that approximates it; bounds were set here for any values at or beyond the usual limits of such assays; conditions: source organism: SARS coronavirus Tor2
observable: Kd

monomer.sequence	observable	reported.value
VVAIDYRHY	Kd	≥ 52.6 µM
NMVYMPASW	Kd	≥ 78.1 µM
CTPPALNCY	Kd	≥ 69.4 µM
YYQLESTQI	Kd	≥ 52.8 µM
QYGSFCTQL	Kd	≥ 78.1 µM
KWDLLKYDF	Kd	≥ 78.1 µM

###

target: HLA-A*02:03; experiment: IEDB peptide-MHC binding, purified MHC/competitive/radioactivity; filed as Kd, often an IC50 or EC50 that approximates it; bounds were set here for any values at or beyond the usual limits of such assays; settings: source organism: Vaccinia virus WR
pKd: −log10 of the molar value.

monomer.sequence	pKd
AIKQYGDIDL	≤ 4.33
KTEHCDDFMT	≤ 4.42
TTENAAYQVL	≤ 4.15

###

Each entry below carries its reported Kd.
target: HLA-A*31:01; assay: IEDB peptide-MHC binding, purified MHC/competitive/radioactivity; filed as Kd, often an IC50 or EC50 that approximates it; bounds were set here for any values at or beyond the usual limits of such assays; conditions: source organism: Vaccinia virus WR
observable: Kd (µM)

monomer.sequence	observable	result.qualifier	reported.value
SSNKDPITVY	Kd	≥	50.9
NTIDKSSPLY	Kd	≥	70
PADCFLVKLK	Kd	≥	31.2
VAALDGTFQR	Kd	=	0.124
EIIFLKLFKK	Kd	=	0.02
IQRFSSLRR	Kd	=	0.0559
STCSAVTDR	Kd	=	0.119
ASKTINALVY	Kd	=	11.1
NLKAMLYIIR	Kd	=	4.84
WVSLKKTNDK	Kd	≥	32.7
YLIHDNIMY	Kd	≥	77.9
QTVDFTDCR	Kd	=	0.722
SSSIDVDKR	Kd	=	8.95
KAEMQLKIDK	Kd	=	3.27
VFTDISMSLY	Kd	=	11.6
KPKPAVRFAI	Kd	≥	70
KTNDINVRRR	Kd	=	0.0179
SVLCVKKFYK	Kd	=	0.000785
NSQIFNIISY	Kd	=	1.32
MFEQYFIYTY	Kd	=	4.51
VSMTYLYNKY	Kd	≥	28.9
KSISSMTIR	Kd	=	0.00364
STDNAVYQCR	Kd	=	0.427
LSKRERQLAK	Kd	=	1.6
MSTYSDICSK	Kd	≥	70
SSKGNCAIK	Kd	=	2.15
DARYCSEFIR	Kd	=	1.13
DSIKDVIHDY	Kd	=	15.4
DADPPIPYSR	Kd	=	10.1
QITTDDLVK	Kd	=	0.207
SSPPIPMSR	Kd	=	10.4
LLIWAYLSKK	Kd	=	1.98
EIIFLKLFK	Kd	=	0.602
TISKDNLER	Kd	=	0.175
FIDRGSIKIK	Kd	=	2.23
KFLEFSNRVY	Kd	=	0.0245
SMTIREFPR	Kd	=	0.000164

###

target: HLA-A*02:02; test: IEDB peptide-MHC binding, purified MHC/competitive/radioactivity; filed as Kd, often an IC50 or EC50 that approximates it; bounds were set here for any values at or beyond the usual limits of such assays; details: source organism: Vaccinia virus WR
pKd: −log10 of the molar value.
Measured pKd by item

monomer.sequence	result.qualifier	pKd
YAGTIKESL	=	5.68
ILDNAAKYV	=	6.90
AADLTQIFEV	=	5.91
SLVITYCLV	=	5.77
NTNQGNILM	=	5.77
SAEVERLMEL	=	5.89
YVEHDPRLV	=	5.93
DVEKRILNTI	≤	4.68
PTRTWKVLSI	≤	4.38
KADAVVADL	=	5.29

###

target: HLA-A*33:01; assay: IEDB peptide-MHC binding, purified MHC/competitive/radioactivity; filed as Kd, often an IC50 or EC50 that approximates it; bounds were set here for any values at or beyond the usual limits of such assays; settings: source organism: Vaccinia virus WR
pKd: −log10 of the molar value.

monomer.sequence	result.qualifier	pKd
DSIKDVIHDY	≤	4.15
KQYDSTDFK	≤	4.59
QMDSMEALEY	≤	4.15
SSSIDVDKR	≤	4.46
LVVISVIFY	≤	4.18
PIINTHSFY	≤	4.11
NTIDKSSPLY	≤	4.15
SVNEYHMLK	=	7.07
NLKAMLYIIR	=	6.88
VSMTYLYNKY	≤	4.15
SSPPIPMSR	=	4.81
LSPAHLINK	≤	4.45
KAEMQLKIDK	=	4.70
FALKKLIIDR	=	5.48
AARILSEKRK	≤	4.15
TFKIDAVRYY	≤	4.36
YIVHSYLKNY	≤	4.15
EIKQGRVNK	=	5.49
LSLSNLDFR	=	6.17
DADPPIPYSR	=	5.57
CLEWLRAKRK	=	4.95
MFEQYFIYTY	=	5.24
DVQRTRCKY	≤	4.45
EIIFLKLFKK	=	6.89
VIGLSGDSER	=	5.93
VVDTFISYNR	=	7.00
KSINKVYGRY	≤	4.15
KFLEFSNRVY	≤	4.15
DVDIYDAVR	=	5.64
DICSKHMDAR	=	6.90
KSPLPSLEY	≤	4.11
SSKGNCAIK	=	4.75
DMFLTSVINR	=	8.64
KFGNSINVK	≤	4.11
WIQYDKHCY	≤	4.22

###

Here the recorded pKd is given for each entry.
target: HLA-A*32:01; experiment: IEDB peptide-MHC binding, purified MHC/competitive/radioactivity; filed as Kd, often an IC50 or EC50 that approximates it; bounds were set here for any values at or beyond the usual limits of such assays; settings: source organism: Vaccinia virus WR
pKd: −log10 of the molar value.
observable: pKd

monomer.sequence	observable	reported.value
ISQHQHLAI	pKd	6.97
HIYFVSLLL	pKd	7.82
KSINVEYRF	pKd	8.82
MTLFKSILF	pKd	7.95

###

biological target: HLA-A*31:01; experiment: IEDB peptide-MHC binding, purified MHC/competitive/radioactivity; filed as Kd, often an IC50 or EC50 that approximates it; bounds were set here for any values at or beyond the usual limits of such assays; conditions: source organism: Vaccinia virus WR
Recorded measurements of Kd, one per entry

monomer.sequence	system.under.test	result.qualifier	Kd [µM]
PIINTHSFY	HLA-A*31:01	≥	77.9
EIKQGRVNK	HLA-A*31:01	≥	51.3
QMDSMEALEY	HLA-A*31:01	≥	70
DVQRTRCKY	HLA-A*31:01	≥	77.9
FTQHLLNIR	HLA-A*31:01	≥	77.9
GSWATSSFR	HLA-A*31:01	=	0.00056
TFKIDAVRYY	HLA-A*31:01	≥	20.7
KSVTKSSSWK	HLA-A*31:01	=	0.376
KSPLPSLEY	HLA-A*31:01	=	7.39
VVDTFISYNR	HLA-A*31:01	=	0.0252

###

target: HLA-A*02:06; assay: IEDB peptide-MHC binding, purified MHC/competitive/radioactivity; filed as Kd, often an IC50 or EC50 that approximates it; bounds were set here for any values at or beyond the usual limits of such assays; details: source organism: Vaccinia virus WR
pKd: −log10 of the molar value.
pKd values by entry

monomer.sequence	pKd
TTENAAYQVL	≤ 4.16
TLFIDRGSI	≤ 4.11
PTRTWKVLSI	≤ 4.16

###

target: HLA-B*27:05; assay: IEDB peptide-MHC binding, purified MHC/direct/fluorescence; filed as Kd, often an IC50 or EC50 that approximates it; bounds were set here for any values at or beyond the usual limits of such assays; settings: source organism: Giardia lamblia ATCC 50803

monomer.sequence	Kd
VYAYPSGEK	≥ 20 µM
YTDDYPMYK	≥ 20 µM
MIYELCTFR	≥ 20 µM

###

The following sequences are listed with their measured Kd values.
target: HLA-A*03:01; test: IEDB peptide-MHC binding, purified MHC/direct/fluorescence; filed as Kd, often an IC50 or EC50 that approximates it; bounds were set here for any values at or beyond the usual limits of such assays; conditions: source organism: Giardia lamblia ATCC 50803

monomer.sequence	Kd
YQYGDNLIL	≥ 20 µM
MNQERRSLR	≥ 20 µM
MTYLDGHPV	≥ 20 µM
